- System: Progesterone receptor (Mesocricetus auratus)
- testDetails: Percent inhibition of [3H]- progesterone binding to Syrian golden hamster uterine cytosol progesterone receptor, at 10e-7 M compound concentration
- measurementConditions: at 0.1 µM
readout: inhibition (%)

> print(dat)
                                   molecule  valuereported
1  COC(=O)C1=C(C)N=C(C)/C(=C(/O)OC)C1c1ccc2nc(-c3ccc(O)c(OC)c3)n(Cc3ccc(O)c(OC)c3)c2c1 (configuration not stated)             12

I = COC(=O)C1=C(C)N=C(C)/C(=C(/O)OC)C1c1cc2ccccc2nc1Cl (configuration not stated)
II = COC(=O)C1=C(C)N=C(C)/C(=C(/O)OC)C1c1ccc(NCc2ccccc2)c([N+](=O)[O-])c1 (configuration not stated)
III = COC(=O)Nc1nc2cc(C3C(C(=O)OC)=C(C)N=C(C)/C3=C(/O)OC)ccc2[nH]1 (configuration not stated)
IV = COC(=O)C1=C(C)N=C(C)/C(=C(\O)OC)C1c1ccc(C(=O)OC)cc1 (configuration not stated)
query: Task for the reader: rank each entry by its inhibition, from the minimum upward. List the labels, following the order given in the request.
result: II, I, III, IV

* * *

- testedTarget: Progesterone receptor (Oryctolagus cuniculus) (UniProt P06186)
- Sequence (P06186 whole entry): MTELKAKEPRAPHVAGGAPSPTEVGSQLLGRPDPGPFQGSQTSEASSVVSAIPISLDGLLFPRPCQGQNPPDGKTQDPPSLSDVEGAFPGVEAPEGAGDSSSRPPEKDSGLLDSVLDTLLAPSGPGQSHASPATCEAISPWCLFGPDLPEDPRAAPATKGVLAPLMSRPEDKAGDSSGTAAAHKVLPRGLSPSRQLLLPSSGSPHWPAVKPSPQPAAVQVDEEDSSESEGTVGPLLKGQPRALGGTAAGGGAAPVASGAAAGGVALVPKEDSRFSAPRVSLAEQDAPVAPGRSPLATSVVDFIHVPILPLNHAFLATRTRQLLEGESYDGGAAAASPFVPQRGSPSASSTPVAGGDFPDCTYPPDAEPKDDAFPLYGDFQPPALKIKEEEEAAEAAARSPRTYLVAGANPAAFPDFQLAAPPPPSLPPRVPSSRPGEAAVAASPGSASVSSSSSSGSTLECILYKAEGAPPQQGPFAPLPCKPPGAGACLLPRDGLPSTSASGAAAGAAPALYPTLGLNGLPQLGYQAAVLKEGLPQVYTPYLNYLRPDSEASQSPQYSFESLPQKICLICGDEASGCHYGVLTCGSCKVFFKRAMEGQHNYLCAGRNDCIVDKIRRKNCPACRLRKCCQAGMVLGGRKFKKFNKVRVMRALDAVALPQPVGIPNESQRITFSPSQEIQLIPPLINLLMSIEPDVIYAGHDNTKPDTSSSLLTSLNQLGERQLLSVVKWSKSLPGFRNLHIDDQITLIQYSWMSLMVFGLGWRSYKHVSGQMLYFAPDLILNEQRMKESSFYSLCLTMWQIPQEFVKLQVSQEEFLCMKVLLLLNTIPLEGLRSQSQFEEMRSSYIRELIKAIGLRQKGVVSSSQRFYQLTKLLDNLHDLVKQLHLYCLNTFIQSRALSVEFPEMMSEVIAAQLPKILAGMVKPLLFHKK
- testDetails: Percent inhibition of [3H]- progesterone binding to rabbit uterine progesterone receptor, at 10e-6 M compound concentration
- measurementConditions: at 1 µM
readout: inhibition (%)

> print(dat)
                                   compound  resultunits  valuereported
1  COC(=O)Nc1nc2cc(C3C(C(=O)OC)=C(C)N=C(C)/C3=C(/O)OC)ccc2[nH]1 (stereo not drawn)            %             16
2  COC(=O)C1=C(C)N=C(C)/C(=C(/O)OC)C1c1ccc2[nH]c(S)nc2c1 (stereo not drawn)            %             18

A = COC(=O)C1=C(C)N=C(C)/C(=C(/O)OC)C1c1ccc(N)c(N)c1 (stereo not drawn)
B = CNc1ccc(C2C(C(=O)OC)=C(C)N=C(C)/C2=C(/O)OC)cc1[N+](=O)[O-] (stereo not drawn)
C = COC(=O)C1=C(C)N=C(C)/C(=C(\O)OC)C1c1ccc(N)c([N+](=O)[O-])c1 (stereo not drawn)
query: Descending sort on inhibition required. Kindly provide the labels arranged according to the requested ordering.
result: A, B, C

* * *

- testedTarget: Progesterone receptor (Oryctolagus cuniculus)
- testDetails: Percent inhibition of [3H]- progesterone binding to rabbit uterine progesterone receptor, at 10e-5 M compound concentration
- measurementConditions: at 10 µM
readout: inhibition (%)

Observe how each entry below is paired with its result.
> print(dat)
                                   molecule  valuereported
1  COC(=O)C1=C(C)N=C(C)/C(=C(\O)OC)C1c1ccc(NC(C)=O)cc1 (stereo not given)             15
2  COC(=O)C1=C(C)N=C(C)/C(=C(/O)OC)C1c1ccc(Cl)c([N+](=O)[O-])c1 (stereo not given)             18
3  COC(=O)C1=C(C)N=C(C)/C(=C(/O)OC)C1c1ccc(C=O)cc1 (stereo not given)             15

a = COC(=O)C1=C(C)N=C(C)/C(=C(/O)OC)C1c1ccc(N)c(N)c1 (stereo not given)
b = COC(=O)C1=C(C)N=C(C)/C(=C(\O)OC)C1c1ccc(N)c([N+](=O)[O-])c1 (stereo not given)
query: Short answer wanted: higher inhibition, a or b ? API: response body contains the label of the selected item.
result: a
(a: 21%, b: 5%)

* * *

- Tested on: Progesterone receptor (Mesocricetus auratus)
- testDetails: Percent inhibition of [3H]- progesterone binding to Syrian golden hamster uterine cytosol progesterone receptor, at 10e-7 M compound concentration
- measurementConditions: at 0.1 µM
readout: inhibition (%)

> print(dat)
                                   compound     readout  valuereported
1  COC(=O)C1=C(C)N=C(C)/C(=C(/O)OC)C1c1ccc2nc(-c3ccc(OC)c(OC)c3)n(Cc3ccc(OC)c(OC)c3)c2c1 (centres undefined)  inhibition              5
2  COC(=O)C1=C(C)N=C(C)/C(=C(/O)OC)C1c1ccc2[nH]c(S)nc2c1 (centres undefined)  inhibition             18

I = COC(=O)C1=C(C)N=C(C)/C(=C(/O)OC)C1c1ccc2[nH]nnc2c1 (centres undefined)
II = COC(=O)C1=C(C)N=C(C)/C(=C(/O)OC)C1c1cc2ccccc2n2nnnc12 (centres undefined)
query: Response body: label of entry with the larger inhibition; valid values I , II . Write down the label attached to your selection.
result: I

* * *

- testedTarget: Progesterone receptor (Oryctolagus cuniculus)
- testDetails: Percent inhibition of [3H]- progesterone binding to rabbit uterine progesterone receptor, at 10e-8 M compound concentration
- measurementConditions: at 0.01 µM
readout: inhibition (%)

> print(dat)
                                    molecule  valuereported
 1  COC(=O)C1=C(C)N=C(C)/C(=C(\O)OC)C1c1ccc(N)c([N+](=O)[O-])c1 (configuration not stated)              0
 2  CNc1ccc(C2C(C(=O)OC)=C(C)N=C(C)/C2=C(/O)OC)cc1[N+](=O)[O-] (configuration not stated)              8
 3  COC(=O)C1=C(C)N=C(C)/C(=C(/O)OC)C1c1ccc(NCc2ccccc2)c([N+](=O)[O-])c1 (configuration not stated)             10
 4  COC(=O)C1=C(C)N=C(C)/C(=C(/O)OC)C1c1ccc2nc(-c3ccc(OC)c(OC)c3)n(Cc3ccc(OC)c(OC)c3)c2c1 (configuration not stated)              0
 5  COC(=O)C1=C(C)N=C(C)/C(=C(\O)OC)C1c1ccc(C(=O)OC)cc1 (configuration not stated)              0
 6  COC(=O)C1=C(C)N=C(C)/C(=C(/O)OC)C1c1cc2ccccc2n2nnnc12 (configuration not stated)             10
 7  COC(=O)C1=C(C)N=C(C)/C(=C(/O)OC)C1c1ccc2nc(-c3ccc4c(c3)OCO4)n(Cc3ccc4c(c3)OCO4)c2c1 (configuration not stated)              0
 8  COC(=O)C1=C(C)N=C(C)/C(=C(/O)OC)C1c1ccc2nc(-c3ccc(OC)cc3)n(Cc3ccc(OC)cc3)c2c1 (configuration not stated)              6
 9  COC(=O)C1=C(C)N=C(C)/C(=C(/O)OC)C1c1ccc(C2C(C(=O)OC)=C(C)N=C(C)/C2=C(/O)OC)cc1 (configuration not stated)             10
10  COC(=O)C1=C(C)N=C(C)/C(=C(/O)OC)C1c1ccc(C=O)cc1 (configuration not stated)              4

A = COC(=O)C1=C(C)N=C(C)/C(=C(/O)OC)C1c1ccc2nc(-c3ccc(O)c(OC)c3)n(Cc3ccc(O)c(OC)c3)c2c1 (configuration not stated)
B = COC(=O)C1=C(C)N=C(C)/C(=C(/O)OC)C1c1ccc(Cl)c([N+](=O)[O-])c1 (configuration not stated)
C = COC(=O)Nc1nc2cc(C3C(C(=O)OC)=C(C)N=C(C)/C3=C(/O)OC)ccc2[nH]1 (configuration not stated)
D = COC(=O)C1=C(C)N=C(C)/C(=C(/O)OC)C1c1ccc2nc(-c3ccccc3)c(-c3ccccc3)nc2c1 (configuration not stated)
query: Ordering: ascending inhibition. Could you list the labels in the order requested?
result: B, D, C, A

* * *

- System: Progesterone receptor (Mesocricetus auratus)
- testDetails: Percent inhibition of [3H]- progesterone binding to Syrian golden hamster uterine cytosol progesterone receptor, at 10e-9 M compound concentration
- measurementConditions: at 0.001 µM
readout: inhibition (%)

A = COC(=O)C1=C(C)N=C(C)/C(=C(/O)OC)C1c1ccc(Cl)c([N+](=O)[O-])c1 (centres undefined)
B = COC(=O)C1=C(C)N=C(C)/C(=C(/O)OC)C1c1ccc(NCc2ccccc2)c([N+](=O)[O-])c1 (centres undefined)
query: Hi there, can you help? I need to know whether A or B has lower measured inhibition. Answer by quoting the chosen item's label.
result: B
(B: 0%, A: 2%)

a = COC(=O)Nc1nc2cc(C3C(C(=O)OC)=C(C)N=C(C)/C3=C(/O)OC)ccc2[nH]1 (centres undefined)
b = COC(=O)C1=C(C)N=C(C)/C(=C(/O)OC)C1c1ccc2[nH]c(S)nc2c1 (centres undefined)
query: Which of the two gives a bigger number for inhibition: a or b ? Identify your selection by its label.
result: b
(b: 9%, a: 0%)

* * *

- Tested on: Progesterone receptor (Mesocricetus auratus)
- testDetails: Percent inhibition of [3H]- progesterone binding to Syrian golden hamster uterine cytosol progesterone receptor, at 10e-6 M compound concentration
- measurementConditions: at 1 µM
readout: inhibition (%)

> print(dat)
                                   molecule                              testedtarget     readout  valuereported
1  COC(=O)C1=C(C)N=C(C)/C(=C(/O)OC)C1c1ccc(N)c(N)c1 (stereo not drawn)  Progesterone receptor (Mesocricetus auratus)  inhibition             14
2  COC(=O)C1=C(C)N=C(C)/C(=C(/O)OC)C1c1ccc2nc(-c3ccc(OC)cc3)n(Cc3ccc(OC)cc3)c2c1 (stereo not drawn)  Progesterone receptor (Mesocricetus auratus)  inhibition             20
3  COC(=O)C1=C(C)N=C(C)/C(=C(/O)OC)C1c1ccc2nc(-c3ccc4c(c3)OCO4)n(Cc3ccc4c(c3)OCO4)c2c1 (stereo not drawn)  Progesterone receptor (Mesocricetus auratus)  inhibition             15
4  COC(=O)C1=C(C)N=C(C)/C(=C(\O)OC)C1c1cc(C(=O)c2ccc(C)cc2)c(OC)cc1OC (stereo not drawn)  Progesterone receptor (Mesocricetus auratus)  inhibition             15
5  COC(=O)C1=C(C)N=C(C)/C(=C(/O)OC)C1c1ccc2nc(-c3ccccc3)c(-c3ccccc3)nc2c1 (stereo not drawn)  Progesterone receptor (Mesocricetus auratus)  inhibition             15

P = COC(=O)C1=C(C)N=C(C)/C(=C(/O)OC)C1c1ccc2[nH]c(S)nc2c1 (stereo not drawn)
Q = COC(=O)C1=C(C)N=C(C)/C(=C(/O)OC)C1c1cc2ccccc2nc1Cl (stereo not drawn)
query: Of P and Q , whose reported inhibition is numerically smaller? API: response body contains the label of the selected item.
result: Q

Entry source: ChEMBL document CHEMBL1124351
